Assay: chemical genetic growth profiling, strain panel (AID 1159580);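 also: tested at 20 µM; growth read once vehicle control cultures reached saturation at 30 °C; 1 = growth at the plate median or of vehicle wells; lower values mean less growth of the strain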
Details: S. cerevisiae deletion strains, growth OD, locus YKL068W, active compounds read low
Screen size: about 5,500 compounds; about 2,000 (36%) were called active. Another 18% or so got no clear call; they are omitted. Some of the results follow.
MEASUREMENT TYPE: normalized growth

Value sought for every listed compound: normalized growth.
1. CC1=C2C(O)C(=O)OC3CC4C(C)(C)C(=O)C=C[C@]4(C)C(CC1)[C@]23C (stereo not given in full)
2. O=C(CCCN1CCC(O)(c2ccc(Cl)cc2)CC1)c1ccc(F)cc1
3. COC1C(O)C(O[C@H]2CC[C@]3(C=O)C4C(CC[C@]3(O)C2)[C@@]2(O)CC[C@H](C3=CC(=O)OC3)[C@@]2(C)C[C@H]4OC(C)=O)OC(C)C1OC(C)=O (stereo not given in full)
4. CC1(C)Oc2ccc3ccc(=O)oc3c2CC1O (stereo not given)
5. CC(=O)OCC(=O)[C@@]1(O)CCC2C3C[C@H](C)C4=CC(=O)C=CC4(C)C3[C@@H](O)CC21C (stereo not given in full)

Found:
["1.01 (inactive)", "1.02 (inactive)", "1.1 [resistant] (active)", "0.998 (inactive)", "1.02 (inactive)"]

Value sought for every listed compound: normalized growth.
1. CO[C@H]1[C@H](O)[C@@H](O[C@H]2CC[C@]3(C=O)C4CC[C@]5(C)[C@@H](C6=CC(=O)OC6)CC[C@]5(O)C4CC[C@@H]3C2)O[C@@H](C)[C@@H]1O (stereo not given in full)
2. NS(=O)(=O)c1cc2c(cc1C(F)(F)F)NC(Cc1ccccc1)NS2(=O)=O (stereo not given)
3. NC[C@H]1O[C@H](O[C@H]2[C@H](O)[C@@H](O[C@H]3O[C@H](CO)[C@@H](O)[C@H](N)[C@H]3O)[C@H](N)C[C@@H]2N)[C@H](N)[C@@H](O)[C@@H]1O

Found:
1: 0.994 (inactive); 2: 1 (inactive); 3: 0.966 (inactive)

Value sought for every listed compound: normalized growth.
1. C[C@H]1O[C@@H](O[C@H]2[C@@H](O)C[C@H](O[C@H]3[C@@H](O)C[C@H](O[C@H]4CC[C@]5(C)C6C[C@@H](O)[C@]7(C)[C@@H](C8=CC(=O)OC8)CC[C@]7(O)C6CC[C@@H]5C4)O[C@@H]3C)O[C@@H]2C)C[C@H](O)[C@@H]1O (stereo not given in full)
2. COC(=O)[C@H]1[C@H]2C[C@H]3c4[nH]c5cc(OC)ccc5c4CCN3C[C@H]2C[C@@H](OC(=O)c2cc(OC)c(OC)c(OC)c2)[C@@H]1OC

Found:
1: 0.986 (inactive); 2: 0.995 (inactive)

* * *

Experiment: chemical genetic growth profiling, strain panel (AID 1159580);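 also: tested at 20 µM; growth read once vehicle control cultures reached saturation at 30 °C; 1 = growth at the plate median or of vehicle wells; lower values mean less growth of the strain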
Conditions: S. cerevisiae deletion strains, growth OD, locus YJR075W, strain HOC1, active compounds read low
Screen size: about 5,500 compounds; about 2,000 (36%) were called active. About 18% were inconclusive and are not listed. Some of the results follow.
Please provide measured normalized growth for the entries that follow.
One number for each entry.

Reference set, count: 6
COMPOUND STRUCTURE STRING: Nc1nc(/C(=C/CC(=O)O)C(=O)N[C@@H]2C(=O)N3C(C(=O)O)=CCS[C@H]23)cs1
normalized growth: 1.01
//
COMPOUND STRUCTURE STRING: CN1c2ccccc2C(=O)/C(=N/Nc2ccccc2F)S1(=O)=O
normalized growth: 1.02
//
COMPOUND STRUCTURE STRING: CC(C)c1cccc(C(C)C)c1O
normalized growth: 1
//
COMPOUND STRUCTURE STRING: CC1(C)S[C@@H]2[C@H](NC(=O)[C@@H](N)c3ccc(O)cc3)C(=O)N2[C@H]1C(=O)O
normalized growth: 1.02
//
COMPOUND STRUCTURE STRING: COC(=O)Cc1cc(OC)c(OC)cc1[N+](=O)[O-]
normalized growth: 0.997
//
COMPOUND STRUCTURE STRING: CCn1nc(C)cc1C(=O)O
normalized growth: 1.02

Next item in the queue.
Lookup: Look at this molecule and give its reported normalized growth. `CC(C)Nc1nc(Cl)nc(NC(C)C)n1`
Found: 1.01

* * *

Experiment: chemical genetic growth profiling, strain panel (AID 1159580);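 also: tested at 20 µM; growth read once vehicle control cultures reached saturation at 30 °C; 1 = growth at the plate median or of vehicle wells; lower values mean less growth of the strain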
Details: S. cerevisiae deletion strains, growth OD, locus YAL021C, strain ccr4, active compounds read low
About 2,000 (36%) of roughly 5,500 compounds were called active. Another 18% or so got no clear call; they are omitted. The list shows a part of the results.
Please provide measured normalized growth for the entries that follow.
Answers are plain numbers.

Reference set, count: 3
COMPOUND: O=c1c2cc(O)c(O)cc2oc2cc(O)c(C3O[C@H](CO)[C@H](O)[C@@H](O)[C@H]3O)c(O)c12 (stereo partly specified)
MEASUREMENT TYPE: normalized growth
READOUT VALUE: 1.01
--
COMPOUND: C[C@H]1O[C@H](O[C@H]2[C@H](O)[C@@H](O)[C@@H](O[C@H]3[C@H](O)[C@@H](O)C(O)O[C@@H]3CO)O[C@@H]2CO)[C@H](O)[C@@H](O)[C@@H]1N[C@H]1C=C(CO)[C@@H](O)[C@H](O)[C@H]1O (stereo partly specified)
MEASUREMENT TYPE: normalized growth
READOUT VALUE: 0.999
--
COMPOUND: COc1ccc(-c2cc(=O)c3c(O)c(OC)c(O[C@H]4O[C@H](CO[C@@H]5O[C@@H](C)[C@H](O)[C@@H](O)[C@H]5O)[C@@H](O)[C@H](O)[C@H]4O)cc3o2)cc1
MEASUREMENT TYPE: normalized growth
READOUT VALUE: 1.02

Value sought for every listed compound: normalized growth.
1. COP(N)(=O)SC (stereo unspecified)
2. Oc1ccc([C@H]2Oc3cc(O)cc(O)c3C[C@H]2O)cc1
3. CN(C)C(=O)C(CCN1CCC(O)(c2ccc(Cl)cc2)CC1)(c1ccccc1)c1ccccc1

Found:
1. 0.981
2. 0.995
3. 0.984

Value sought for every listed compound: normalized growth.
1. NCC(O)CC(=O)O (stereo unspecified)
2. COc1ccccc1N1CCN(CCCNc2cc(=O)n(C)c(=O)n2C)CC1
3. COC(=O)C[C@H]1C(C)(C)[C@@H](O)[C@@H]2CC3=C4CC(O)O[C@@H](c5ccoc5)[C@]4(C)CCC3[C@@]1(C)C2=O (stereo partly specified)

Found:
[1.01, 0.998, 1.01]

Value sought for every listed compound: normalized growth.
1. COC(=O)N/N=C\c1c[n+]([O-])c2ccccc2[n+]1[O-]
2. NC[C@H]1O[C@H](O[C@H]2[C@H](O)[C@@H](O[C@H]3O[C@H](CO)[C@@H](O)[C@H](N)[C@H]3O)[C@H](N)C[C@@H]2N)[C@H](N)[C@@H](O)[C@@H]1O

Found:
[0.985, 0.999]

* * *

Please provide measured normalized growth for the entries that follow.
Assay: chemical genetic growth profiling, strain panel (AID 1159580);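 also: tested at 20 µM; growth read once vehicle control cultures reached saturation at 30 °C; 1 = growth at the plate median or of vehicle wells; lower values mean less growth of the strain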
Conditions: S. cerevisiae deletion strains, growth OD, locus YLR342W, strain FKS1 (second series), active compounds read low
In all, about 5,500 compounds went through this assay and about 2,000 (36%) were called active. Not shown: some 18% with an inconclusive outcome. Some of the results follow.
Numbers only.

Reference set, count: 5
MOLECULE: CC(C)=CC1C(CO)C1(C)C (centres undefined)
normalized growth: 1.02

MOLECULE: NC(=O)c1ccc([N+](=O)[O-])cc1Cl
normalized growth: 1

MOLECULE: CC1(C)S[C@@H]2[C@H](NC(=O)C(C(=O)O)c3ccccc3)C(=O)N2[C@H]1C(=O)O (some centres undefined)
normalized growth: 0.998

MOLECULE: CCc1ccc2c(O)c3c(cc2c1C(=O)OC)C(=O)c1c(O)ccc(O)c1C3=O
normalized growth: 0.977

MOLECULE: C[C@@H](CO)NC(=O)C1C=C2c3cccc4[nH]cc(c34)C[C@H]2N(C)C1 (some centres undefined)
normalized growth: 0.973

Value sought for every listed molecule: normalized growth.
1. COc1cc(O)c2c(=O)cc(-c3ccc(OC)c(-c4c(O)cc(O)c5c(=O)cc(-c6ccc(O)cc6)oc45)c3)oc2c1
2. NC(=O)c1cc([N+](=O)[O-])cc([N+](=O)[O-])c1
3. CC(C)(C)NCC(O)COc1cccc2c1C[C@H](O)[C@H](O)C2 (some centres undefined)
4. C[C@@H]1CC[C@@]23CCC4(C)[C@@](C=CC5[C@@]6(C)CC[C@H](O)C(C)(C)C6CC[C@]54C)(OC2=O)C3[C@H]1C (some centres undefined)
5. COc1cc(C)c2c(=O)c3c(O)cc(OC)cc3oc2c1
6. CC[C@H]1CN2CCC1C[C@@H]2[C@@H](O)c1ccnc2ccc(OC)cc12 (some centres undefined)
7. COc1ccc(-c2cc(=O)c3c(O)cc(O)c(-c4cc(-c5cc(=O)c6c(O)cc(O)cc6o5)ccc4OC)c3o2)cc1

Found:
[0.981, 1.02, 0.993, 1.02, 0.996, 0.983, 1.02]

Value sought for every listed molecule: normalized growth.
1. O=c1c(O)cc([C@H]2Oc3cc(O)cc(O)c3C[C@H]2O)cc2c([C@H]3Oc4cc(O)cc(O)c4C[C@H]3O)cc(O)c(O)c12
2. Nc1ccc(S(=O)(=O)Nc2ncccn2)cc1
3. CC(=O)[C@@]1(O)CCC2C3C=C(Cl)C4=CC(=O)[C@@H]5CC5[C@]4(C)C3CC[C@@]21C (some centres undefined)
4. CC1(C)S[C@@H]2[C@H](NC(=O)[C@@H](N)c3ccc(O)cc3)C(=O)N2[C@H]1C(=O)O
5. Oc1ccc2c3c1OC1[C@@H](O)CC[C@@]4(O)[C@@H](C2)N(CC2CCC2)CC[C@]314 (some centres undefined)
6. COc1ccc(-c2cc(=O)c3c(O)cc(O)cc3o2)cc1O
7. C[N+]1(C)C[C@H](O)[C@H](C(=O)[O-])C1

Found:
1. 1.01
2. 1.01
3. 1.01
4. 0.974
5. 1.01
6. 1.02
7. 1.02
